Values were extracted from PubChem BioAssay (NCI).

Quick reference: growth of the listed items.
tested on: ACHN renal; test: NCI-60 one-dose screen, 48 h (100 = growth as untreated, 0 = no growth, -100 = all killed); settings: 10 µM
This is part of a sample that, as a whole, favours compounds with a hit. Of some 83,000 tested, about 20% had one in any assay.

{"columns": ["compound_string", "target_desc", "growth / %"],
 "data": [
  ["Nc1nc(-c2ccccc2Cl)cc(-c2ccc(Cl)cc2Cl)n1", "ACHN renal", 86],
  ["CSC1=NCCCC1", "ACHN renal", 102],
  ["CCN(CC)Cc1cc(Nc2ccnc3cc(Cl)ccc23)ccc1OC", "ACHN renal", 97],
  ["CC1=C(N2CCOCC2)C(N2CCOCC2)=C(C)C(=O)C1=O", "ACHN renal", 101],
  ["COc1cc(-c2cc(-c3cc4c([nH]c5ccccc54)c(-c4cc(OC)c(OC)c(OC)c4)n3)cc(-c3ccccc3)n2)cc(OC)c1OC", "ACHN renal", 62.8],
  ["N=C(N)c1ccc(-c2ccc(-c3ccco3)o2)cc1", "ACHN renal", 79.4],
  ["CSc1cc(SC)ncn1", "ACHN renal", 107],
  ["CS(=O)(=O)Nc1ccc(Nc2c3ccccc3nc3cc([N+](=O)[O-])ccc23)cc1", "ACHN renal", 12.6],
  ["Cc1ccc(NC(=O)Nc2nc3ccccc3s2)cc1NC(=O)Nc1nc2ccccc2s1", "ACHN renal", 83.7]
]}

---

system: 786-0 renal; assay: NCI-60 one-dose screen, 48 h (100 = growth as untreated, 0 = no growth, -100 = all killed); settings: 10 µM
This is part of a sample that, as a whole, favours compounds with a hit. Of some 83,000 tested, about 20% had one in any assay.
Quick reference: growth of the listed items.
property: growth (%)

{"columns": ["compound", "property", "numeric_result"],
 "data": [
  ["CSc1nc(=O)n(Cc2ccc(Cl)cc2)c(=O)[nH]1", "growth", 101],
  ["c1ccc2c(c1)oc1c3cccnc3ccc21", "growth", 94.4],
  ["CCOC(=O)CNC(=O)CCCCSc1ncnc2nc[nH]c12", "growth", 97.9],
  ["Cc1ccc(-c2n[nH]c(=O)c3noc(-c4ccc(C)cc4)c23)cc1", "growth", 48.4],
  ["COc1ccc(-c2nc3ncccn3c2-c2nnc(-c3ccsc3C)o2)cc1", "growth", 90.9],
  ["CCN(CC)CCSCCCNc1c2ccc(Cl)cc2nc2ccc(OC)cc12", "growth", -37.3],
  ["COc1ccc(S(=O)(=O)NCCCNc2nccc(-c3c(-c4ccc(F)cc4)nc4sccn34)n2)cc1", "growth", 72.4],
  ["COc1cc(Cl)cc(-c2nn(-c3cccc(NC(=O)c4ccc(N5CCOCC5)c(C(F)(F)F)c4)c3)cc2-c2ccncc2)c1", "growth", 43.1],
  ["C[N+](C)(C)c1ncnc2nc[nH]c12", "growth", 89.8],
  ["COc1ccc(Nc2nc3ccc(NC(=O)NC4CCCCC4)cc3[nH]c2=O)cc1", "growth", 72.7],
  ["Cc1nc2ccc(CN(C)c3ccc(C(=O)N[C@@H](CCC(=O)O)C(=O)O)s3)cc2c(=O)[nH]1", "growth", 18.3],
  ["Cc1ccc(NC(=O)Nc2cccnc2)cc1NC(=O)Nc1cccnc1", "growth", 94.8],
  ["CCCC#CCN(CC)CC", "growth", 100],
  ["COc1ccc(-c2nn(-c3cccc(NC(=O)Nc4ccc(Cl)c(C(F)(F)F)c4)c3)cc2-c2ccncc2)cc1Cl", "growth", 19],
  ["O=C(Nc1ccc(Cl)c(Cl)c1)Nc1c(Oc2ccc(Cl)c(Cl)c2)ccc(Cl)c1S(=O)(=O)O", "growth", 35],
  ["COc1ccc(-n2c(SCc3cc(OC)c(OC)c(OC)c3)nc3ccc(C)cc3c2=O)cc1", "growth", 84.1],
  ["COc1ccc(-c2nn(-c3cccc(NC(=O)c4ccc(N5CCOCC5)c(C(F)(F)F)c4)c3)cc2-c2ccncc2)cc1Cl", "growth", 37.9],
  ["O=C1OCC2=C1C(c1cccc(Cl)c1)c1cc3c(cc1N2CCO)OCCO3 (stereo unspecified)", "growth", 23.7],
  ["O=C1OCC2=C1C(c1ccc(Cl)c(Cl)c1)c1cc3c(cc1N2CCO)OCCO3 (stereo unspecified)", "growth", 25.7],
  ["CC[C@H]1CCC/C=C/[C@@H]2C[C@H](O)C[C@H]2[C@H](O)/C=C/C(=O)O1", "growth", -49],
  ["CC1(C)CCC(=NNC(N)=S)CC1", "growth", 113],
  ["COc1ccc(-c2nn(-c3cccc(NC(=O)Nc4ccccc4)c3)cc2-c2ccncc2)cc1Cl", "growth", 42.2],
  ["COc1ccc(-c2nn(-c3cccc(NC(=O)Nc4cccc(C(F)(F)F)c4)c3)cc2-c2ccncc2)cc1Cl", "growth", 24.2],
  ["O=C(Nc1cccc(-n2cc(-c3ccncc3)c(-c3ccc(O)c(Cl)c3)n2)c1)c1ccc(Cl)c(Cl)c1", "growth", 55.3],
  ["c1ccc(CNc2ncnc3scc(-c4cccs4)c23)nc1", "growth", 79.6],
  ["N=c1nc(N)ncn1-c1ccccc1", "growth", 98]
]}
